Consider the following compounds; for each one, report its viability, T/C.
Test system: 953936-095-R-J2-PDC spheroids with HUVEC/MSC, viability
PROCEDURE TEXT: Anticancer human tumor 953936-095-R-J2-PDC patient-derived cervical squamous cell carcinoma cell line growth inhibition [PI3K]
CONDITION DETAILS: second compound 0.1 µM; first compound 3.16 µM; stronger effect = lower value
Text: Combinatorial screen of targeted agents with the PI3K inhibitors inavolisib, alpelisib, duvelisib, and copanlisib in multi-cell type tumor spheroids A high-throughput screen of multi-cell type tumor spheroids was designed to identify active combinations of targeted small molecules and PI3K pathway inhibitors. […] Compounds. […] If the clinical Cmax for an agent had not been determined, the highest concentration tested was 10 microM. […]
Give bare numbers, in %.

Known viability, T/C results, listed for orientation:
[
  {
    "COMPOUND": "C#Cc1c(F)ccc2cc(O)cc(-c3ncc4c(N5CC6CCC(C5)N6)nc(OCC56CCCN5CC(F)C6)nc4c3F)c12 (stereo unspecified) + COc1c(OCCCN2CCOCC2)ccc2c3n(c(=NC(=O)c4cnc(N)nc4)nc12)CCN3",
    "ENDPOINT": "viability, T/C",
    "QUANTITY UNIT": "%",
    "REPORTED RESULT": 8.08
  },
  {
    "COMPOUND": "C#Cc1c(F)ccc2cc(O)cc(-c3ncc4c(N5CC6CCC(C5)N6)nc(OCC56CCCN5CC(F)C6)nc4c3F)c12 (stereo unspecified) + CC(Nc1ncnc2nc[nH]c12)c1cc2cccc(Cl)c2c(=O)n1-c1ccccc1",
    "ENDPOINT": "viability, T/C",
    "QUANTITY UNIT": "%",
    "REPORTED RESULT": 80.2
  },
  {
    "COMPOUND": "C=CC(=O)N1CCN(c2nc(=O)n(-c3c(C)ccnc3C(C)C)c3nc(-c4c(O)cccc4F)c(F)cc23)C(C)C1 (stereo unspecified) + CC(Nc1ncnc2nc[nH]c12)c1cc2cccc(Cl)c2c(=O)n1-c1ccccc1",
    "ENDPOINT": "viability, T/C",
    "QUANTITY UNIT": "%",
    "REPORTED RESULT": 132
  },
  {
    "COMPOUND": "C[C@@H](NC(=O)c1ncnc(N)c1Cl)c1ncc(C(=O)Nc2cc(C(F)(F)F)c(Cl)cn2)s1 + CC(Nc1ccc2c(c1)OCCn1cc(N3C(=O)OCC3C(F)F)nc1-2)C(N)=O",
    "ENDPOINT": "viability, T/C",
    "QUANTITY UNIT": "%",
    "REPORTED RESULT": 67.8
  },
  {
    "COMPOUND": "CC1(C)CCC(Nc2ncc(C(F)(F)F)c(-c3c[nH]c4c(P(C)(C)=O)c(C#N)ccc34)n2)CN1 (stereo unspecified) + Cc1nc(NC(=O)N2CCCC2C(N)=O)sc1-c1ccnc(C(C)(C)C(F)(F)F)c1",
    "ENDPOINT": "viability, T/C",
    "QUANTITY UNIT": "%",
    "REPORTED RESULT": 54.3
  },
  {
    "COMPOUND": "CNC(=O)c1ccc(N2C(=S)N(c3ccc(C#N)c(C(F)(F)F)c3)C(=O)C2(C)C)cc1F + Cc1nc(NC(=O)N2CCCC2C(N)=O)sc1-c1ccnc(C(C)(C)C(F)(F)F)c1",
    "ENDPOINT": "viability, T/C",
    "QUANTITY UNIT": "%",
    "REPORTED RESULT": 74.7
  }
]

Below are 5 compounds. Give each one its viability, T/C.
1. CC1(C)CCC(Nc2ncc(C(F)(F)F)c(-c3c[nH]c4c(P(C)(C)=O)c(C#N)ccc34)n2)CN1 (stereo unspecified) + CC(Nc1ncnc2nc[nH]c12)c1cc2cccc(Cl)c2c(=O)n1-c1ccccc1
2. Cn1nccc1Nc1nccc(-c2ccn(C(CO)c3ccc(Cl)c(F)c3)c(=O)c2)n1 (stereo unspecified) + CC(Nc1ncnc2nc[nH]c12)c1cc2cccc(Cl)c2c(=O)n1-c1ccccc1
3. CC(Cn1ccc(-c2ccc(C#N)c(Cl)c2)n1)NC(=O)c1cc(C(C)O)[nH]n1 (stereo unspecified) + COc1c(OCCCN2CCOCC2)ccc2c3n(c(=NC(=O)c4cnc(N)nc4)nc12)CCN3
4. C[C@@H](NC(=O)c1ncnc(N)c1Cl)c1ncc(C(=O)Nc2cc(C(F)(F)F)c(Cl)cn2)s1 + Cc1nc(NC(=O)N2CCCC2C(N)=O)sc1-c1ccnc(C(C)(C)C(F)(F)F)c1
5. CC(Cn1ccc(-c2ccc(C#N)c(Cl)c2)n1)NC(=O)c1cc(C(C)O)[nH]n1 (stereo unspecified) + Cc1nc(NC(=O)N2CCCC2C(N)=O)sc1-c1ccnc(C(C)(C)C(F)(F)F)c1

Result ::
51.9
88
21.8
84.1
82.4

====

System: 953936-095-R-J2-PDC spheroids with HUVEC/MSC, viability
PROCEDURE TEXT: Anticancer human tumor 953936-095-R-J2-PDC cell line growth inhibition [PI3K]; active = viability on the fitted dose curve at most 10% of control; inactive = the rest;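 further: spheroids exposed to compounds for seven days before read-out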
CONDITION DETAILS: second compound 0.0316 µM; first compound 0.1 µM
One label from this list, please: active, inactive

Solved entries:
[
  {
    "COMPOUND": "CCN1CCN(Cc2ccc(Nc3ncc(F)c(-c4cc(F)c5nc(C)n(C(C)C)c5c4)n3)nc2)CC1 + COc1c(OCCCN2CCOCC2)ccc2c3n(c(=NC(=O)c4cnc(N)nc4)nc12)CCN3",
    "SYSTEM UNDER TEST": "953936-095-R-J2-PDC spheroids with HUVEC/MSC, viability",
    "ASSIGNED LABEL": "inactive"
  },
  {
    "COMPOUND": "Cn1ncnc1[C@H]1c2n[nH]c(=O)c3cc(F)cc(c23)N[C@@H]1c1ccc(F)cc1 + COc1c(OCCCN2CCOCC2)ccc2c3n(c(=NC(=O)c4cnc(N)nc4)nc12)CCN3",
    "SYSTEM UNDER TEST": "953936-095-R-J2-PDC spheroids with HUVEC/MSC, viability",
    "ASSIGNED LABEL": "inactive"
  },
  {
    "COMPOUND": "CNC(=O)c1ccc(N2C(=S)N(c3ccc(C#N)c(C(F)(F)F)c3)C(=O)C2(C)C)cc1F + Cc1nc(NC(=O)N2CCCC2C(N)=O)sc1-c1ccnc(C(C)(C)C(F)(F)F)c1",
    "SYSTEM UNDER TEST": "953936-095-R-J2-PDC spheroids with HUVEC/MSC, viability",
    "ASSIGNED LABEL": "inactive"
  },
  {
    "COMPOUND": "CC(C)n1nc(-c2ccc3oc(N)nc3c2)c2c(N)ncnc21 + COc1c(OCCCN2CCOCC2)ccc2c3n(c(=NC(=O)c4cnc(N)nc4)nc12)CCN3",
    "SYSTEM UNDER TEST": "953936-095-R-J2-PDC spheroids with HUVEC/MSC, viability",
    "ASSIGNED LABEL": "active"
  }
]

Query :: Answer briefly: the call reported for CC(=O)c1c(C)c2cnc(Nc3ccc(N4CCNCC4)cn3)nc2n(C2CCCC2)c1=O + COc1c(OCCCN2CCOCC2)ccc2c3n(c(=NC(=O)c4cnc(N)nc4)nc12)CCN3 in this assay.
Result :: inactive

Query :: Answer briefly: the call reported for Cn1ncc(Cl)c1-c1cc(C(=O)NC(CN)Cc2cccc(F)c2)sc1Cl (configuration not stated) + Cc1nc(NC(=O)N2CCCC2C(N)=O)sc1-c1ccnc(C(C)(C)C(F)(F)F)c1 in this assay.
Result :: inactive

Query :: Answer briefly: the call reported for CC(=O)c1c(C)c2cnc(Nc3ccc(N4CCNCC4)cn3)nc2n(C2CCCC2)c1=O + CC(Nc1ncnc2nc[nH]c12)c1cc2cccc(Cl)c2c(=O)n1-c1ccccc1 in this assay.
Result :: inactive

Query :: Answer briefly: the call reported for C#Cc1c(F)ccc2cc(O)cc(-c3ncc4c(N5CC6CCC(C5)N6)nc(OCC56CCCN5CC(F)C6)nc4c3F)c12 (configuration not stated) + CC(Nc1ncnc2nc[nH]c12)c1cc2cccc(Cl)c2c(=O)n1-c1ccccc1 in this assay.
Result :: inactive

Query :: Answer briefly: the call reported for CC(Cn1ccc(-c2ccc(C#N)c(Cl)c2)n1)NC(=O)c1cc(C(C)O)[nH]n1 (configuration not stated) + CC(Nc1ccc2c(c1)OCCn1cc(N3C(=O)OCC3C(F)F)nc1-2)C(N)=O in this assay.
Result :: inactive

====

Tested on: 953936-095-R-J2-PDC spheroids with HUVEC/MSC, viability
PROCEDURE TEXT: Anticancer human tumor 953936-095-R-J2-PDC cell line growth inhibition [PI3K];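 further: spheroids exposed to compounds for seven days before read-out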
CONDITION DETAILS: curve of first compound; second compound 0.1 µM
ENDPOINT: IC50

Known IC50 results, listed for orientation:
[
  {
    "COMPOUND": "CC1(C)CCC(CN2CCN(c3ccc(C(=O)NS(=O)(=O)c4ccc(NCC5CCOCC5)c([N+](=O)[O-])c4)c(Oc4cnc5[nH]ccc5c4)c3)CC2)=C(c2ccc(Cl)cc2)C1 + CC(Nc1ncnc2nc[nH]c12)c1cc2cccc(Cl)c2c(=O)n1-c1ccccc1",
    "IC50": "6.33 µM"
  },
  {
    "COMPOUND": "Cn1ncnc1[C@H]1c2n[nH]c(=O)c3cc(F)cc(c23)N[C@@H]1c1ccc(F)cc1 + CC(Nc1ncnc2nc[nH]c12)c1cc2cccc(Cl)c2c(=O)n1-c1ccccc1",
    "IC50": "> 0.1 µM"
  }
]

Query :: Assign IC50 to the following record: C#Cc1c(F)ccc2cc(O)cc(-c3ncc4c(N5CC6CCC(C5)N6)nc(OCC56CCCN5CC(F)C6)nc4c3F)c12 (stereo not drawn) + Cc1nc(NC(=O)N2CCCC2C(N)=O)sc1-c1ccnc(C(C)(C)C(F)(F)F)c1
Result :: > 10 µM
